Entries annotated with measured pEC50
# Test system: INS-1E cells
# procedure_text: cells
# Type: cell-based, rat
# test_settings: Rattus norvegicus; IC50 / EC50; INS-1E; read-out: Insulin Secretion
pEC50: −log10 of the molar value.
property_label: pEC50

[[record]]
compound = "CC1=C(C(=O)OC(C)C)C(c2cccc([N+](=O)[O-])c2)C(C(=O)OC2CN(C(c3ccccc3)c3ccccc3)C2)=C(N)N1 (centres unmarked) [Azelnidipine]"
test_result = "< 5.00"

[[record]]
compound = "Nc1nc(=O)n([C@@H]2O[C@H](CO)[C@@H](O)[C@@H]2F)cc1I [Fiacitabine]"
test_result = "< 5.00"

[[record]]
compound = "CC(C)=CCNc1ncnc2c1ncn2[C@@H]1O[C@H](CO)[C@@H](O)[C@H]1O [Riboprine]"
test_result = "< 5.00"

[[record]]
compound = "COc1cccc2c1C(=O)c1c(O)c3c(c(O)c1C2=O)C[C@@](O)(C(=O)CO)C[C@@H]3O[C@H]1C[C@H](N2CCO[C@H](OC)C2)[C@H](O)[C@H](C)O1 [nemorubicin]"
test_result = "< 5.00"

[[record]]
compound = "CCC1=C(C)CN(C(=O)NCCc2ccc(S(=O)(=O)NC(=O)N[C@H]3CC[C@H](C)CC3)cc2)C1=O [glimepiride, reference compound]"
test_result = 8.39


* * *

# System: INS-1E cells;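 on 5mMGluc INS1E SecretionMod IC50/EC50: secreted insulin quantified by homogeneous immunoassay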
# procedure_text: cells
# Format: cell-based, rat
# test_settings: assay number 8; 5 mM glucose
Entries annotated with measured 5mMGluc_INS1E SecretionMod IC50/EC50
property_label: 5mMGluc_INS1E SecretionMod IC50/EC50

[[record]]
molecule = "Cc1c(N)cccc1C(F)(F)F"
test_result = "> 33.33 µM"

[[record]]
molecule = "Cc1ccc(O)c([C@H](CCN(C(C)C)C(C)C)c2ccccc2)c1"
test_result = "> 33.33 µM"

[[record]]
molecule = "CC1CC(=O)NN=C1c1ccc(NCC(C)(C)NCC(O)COc2cc(Cl)ccc2C#N)cc1 (stereo not drawn)"
test_result = "15.1547 µM"

[[record]]
molecule = "CCN(CC)CCOCCOC(=O)C1(c2ccccc2)CCCC1"
test_result = "7.687 µM"

[[record]]
molecule = "FC(F)(F)C(F)(F)C(F)(F)C(F)(F)C(F)(F)C(F)(F)C(F)(F)C(F)(F)Br"
test_result = "> 33.33 µM"

[[record]]
molecule = "CC(COc1ccccc1)NN (stereo not drawn)"
test_result = "> 33.33 µM"

[[record]]
molecule = "CN(C)CCOC(C)(c1ccccc1)c1ccccn1.O=C(O)CCC(=O)O (stereo not drawn)"
test_result = "> 33.33 µM"

[[record]]
molecule = "COc1cc(C(=O)OCCCN2CCCN(CCCOC(=O)c3cc(OC)c(OC)c(OC)c3)CC2)cc(OC)c1OC"
test_result = "10.1571 µM"

[[record]]
molecule = "CN1CCN(CCC(=O)N2c3ccccc3Sc3ccc(C(F)(F)F)cc32)CC1"
test_result = "> 11.11 µM"


* * *

# Tested on: SW480
# procedure_text: cells
# Type: cell-based
# test_settings: basal
property_label: IC50/EC50, Basal_Viability ATP SW480 (assay number 24) (µM)

[[record]]
compound_string = "Nc1ccc(C(=O)Nc2ccccc2N)cc1"
lt_gt_eq = ">"
test_result = 20

[[record]]
compound_string = "CC/C=C\\C/C=C\\C/C=C\\CCCCCCCC(=O)O"
lt_gt_eq = ">"
test_result = 20

[[record]]
compound_string = "Fc1ccc(C(OCCN2CCN(CCCc3ccccc3)CC2)c2ccc(F)cc2)cc1"
lt_gt_eq = "="
test_result = 2.068

[[record]]
compound_string = "O=C(Nc1ccc(Br)cc1)c1cc(Br)cc(Br)c1O"
lt_gt_eq = "="
test_result = 0.001

[[record]]
compound_string = "NC(N)=NN=C(/C=C/c1ccc([N+](=O)[O-])o1)/C=C/c1ccc([N+](=O)[O-])o1"
lt_gt_eq = "="
test_result = 0.0076

[[record]]
compound_string = "Cn1cnc([N+](=O)[O-])c1Sc1ncnc2nc[nH]c12"
lt_gt_eq = "="
test_result = 9.4353

[[record]]
compound_string = "CCCSc1ccc2nc(NC(=O)OC)[nH]c2c1"
lt_gt_eq = ">"
test_result = 20

[[record]]
compound_string = "COC(=O)Nc1nc2ccc(Sc3ccccc3)cc2[nH]1"
lt_gt_eq = ">"
test_result = 20

[[record]]
compound_string = "OCCN1CCN(CC/C=C2/c3ccccc3Sc3ccc(C(F)(F)F)cc32)CC1"
lt_gt_eq = "="
test_result = 3.928

[[record]]
compound_string = "CCCCCCOc1ccccc1C(N)=O"
lt_gt_eq = ">"
test_result = 20


Where these numbers come from: paper PMC4503722
